- experimentalSystem: Serine/threonine-protein kinase mTOR (Homo sapiens)
- test: Inhibition of recombinant human N-terminal FLAG-tagged mTOR (1362 to end residues) expressed in baculovirus infected Sf21 insect cells assessed as reduction in ULight-4E-BP1 phosphorylation after 30 mins by lance ultra assay
property: pIC50
The meaning of pIC50 here: minus log10 of the concentration in molar units.

See these solved cases before continuing.
Kindly state the measured pIC50 obtained for "C[C@@H]1CN(c2nc(N3CCOCC3)c3sc(C(N)=O)cc3n2)C[C@H](C)O1" with Serine/threonine-protein kinase mTOR (Homo sapiens). 6.06

Next record, please: "C[C@@H]1CN(c2nc(N3CCOCC3)c3sc(-c4cn[nH]c4)cc3n2)C[C@H](C)O1" 6.37

For CC(O)c1cc2nc(N3C[C@@H](C)O[C@@H](C)C3)nc(N3CCOCC3)c2s1 (some centres undefined) then? 6.20

Ok, now "C[C@@H]1CN(c2nc(N3CCOCC3)c3sc(-c4ccccc4O)cc3n2)C[C@H](C)O1" 6.65

Same for "C[C@@H]1CN(c2nc(N3CCOCC3)c3sc(-c4ccco4)cc3n2)C[C@H](C)O1" 6.96

Now consider a different compound.
Fill in the recorded pIC50 for this compound, with Serine/threonine-protein kinase mTOR (Homo sapiens) as test system: "C[C@@H]1CN(c2nc(N3CCOCC3)c3sc(-c4ccn[nH]4)cc3n2)C[C@H](C)O1" 7.80
